Reported shrunken log2 fold change is given for each of the following sequences.
Tested on: Escherichia coli TOP10;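 further: peptides expressed intracellularly from a pBAD plasmid library in pooled LB shake-flask culture, induced with 0.3% L-arabinose, DNA abundance read by NGS, three biological replicates, DESeq2 with apeglm shrinkage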
Assay: shrunken log2 fold change of peptide-encoding DNA abundance (4.5 h post-induction vs induction); higher = less antimicrobial activity (less host growth inhibition)
Settings: time post-induction: 4.5 h; library: site-saturation at positions 5, 18, 19, 20

Before answering, review these 5 worked examples.
RESIDUE SEQUENCE: RRIRYRPPRLPRPRPRPDGWPRP
shrunken log2 fold change: 0.212

RESIDUE SEQUENCE: RRIRPRPPRLPRPRPRPSARPRP
shrunken log2 fold change: 0.186

RESIDUE SEQUENCE: RRIRFRPPRLPRPRPRPRGRPRP
shrunken log2 fold change: 0.454

RESIDUE SEQUENCE: RRIRPRPPRLPRPRPRPHIEPRP
shrunken log2 fold change: -0.646

RESIDUE SEQUENCE: RRIRSRPPRLPRPRPRPQALPRP
shrunken log2 fold change: 0.0266

Record request: shrunken log2 fold change value, item RRIRERPPRLPRPRPRPGENPRP 0.00425

For RRIRMRPPRLPRPRPRPGYTPRP then? -0.177

For RRIRHRPPRLPRPRPRPLFPPRP then? -0.102
